tested on: Mycosphaerella graminicola; Anamorph: Septoria tritici; test: Fungicidal activity: Leaf Blotch of Wheat (SEPTTR); assay type: in vivo; conditions: Zymoseptoria tritici, 24 h; Low Volume (121.5 g/H), 1 Day Protectant, wheat leaf blotch; read-out: SEPTTR 1 DP disease control
For each of the compounds below, state its pest or weed control at 121.5 g/ha.

Previously resolved entries follow.
Dear colleague, I am looking for the recorded pest or weed control at 121.5 g/ha of the following compound: "COc1ccnc(C(=O)N[C@H]2COC[C@H](Cc3ccccc3)[C@@H](C3CCCC3)[C@H](C)OC2=O)c1OCOC(=O)C(C)C"
> 70%

Give the measured pest or weed control at 121.5 g/ha of "COc1ccnc(C(=O)N[C@H]2COC[C@H](Cc3ccccc3)[C@@H](Cc3ccc(F)cc3)[C@H](C)OC2=O)c1OC(C)=O" .
> 70%

Query (compound): "COc1ccnc(C(=O)N[C@H]2COC[C@H](CCCc3ccccc3)[C@@H](Cc3ccccc3)[C@H](C)OC2=O)c1OCOC(C)=O" ; field requested: pest or weed control at 121.5 g/ha
> 70%

pest or weed control at 121.5 g/ha lookup needed for "COc1ccnc(C(=O)N[C@H]2COC[C@H](CCC(C)C)[C@@H](Cc3ccccc3)[C@H](C)OC2=O)c1OCOC(C)=O" , thanks.
> 70%

Entry "COc1ccnc(C(=O)N[C@H]2COC[C@H](Cc3ccc(C(F)(F)F)cc3)[C@@H](CC(C)C)[C@H](C)OC2=O)c1OCOC(C)=O" : reported pest or weed control at 121.5 g/ha = ?
> 70%

I am curious: what pest or weed control at 121.5 g/ha value has been reported for "CCCC[C@@H]1[C@@H](Cc2ccccc2)COC[C@H](NC(=O)c2nccc(OC)c2OC(C)=O)C(=O)O[C@H]1C" ?
> 70%

pest or weed control at 121.5 g/ha for "COc1ccnc(C(=O)N[C@H]2COC[C@H](Cc3ccc(C(F)(F)F)cc3)[C@@H](Cc3ccc(F)cc3)[C@H](C)OC2=O)c1OCOC(=O)C(C)C" ?
< 70%

Recorded pest or weed control at 121.5 g/ha for "COc1ccnc(C(=O)N[C@H]2COC[C@H](CCCc3ccccc3)[C@@H](Cc3ccc(OC(F)(F)F)cc3)[C@H](C)OC2=O)c1OC(C)=O" , please?
< 70%

I have 7 compounds here; please give me pest or weed control at 121.5 g/ha for each one.
1. CCCC[C@@H]1[C@@H](Cc2ccccc2)COC[C@H](NC(=O)c2nccc(OC)c2OCOC(=O)C(C)C)C(=O)O[C@H]1C
2. COc1ccnc(C(=O)N[C@H]2COC[C@H](Cc3ccc(Cl)cc3)[C@@H](C3CCCC3)[C@H](C)OC2=O)c1OCOC(C)=O
3. COc1ccnc(C(=O)N[C@H]2COC[C@H](CC3CC3)[C@@H](c3ccccc3)[C@H](C)OC2=O)c1OCOC(=O)C(C)C
4. COc1ccnc(C(=O)N[C@H]2COC[C@H](CCCc3ccccc3)[C@@H](CCc3ccccc3)[C@H](C)OC2=O)c1OCOC(C)=O
5. COc1ccnc(C(=O)N[C@@H]2COC[C@@H](Cc3ccccc3)[C@H](COCC(C)C)[C@@H](C)OC2=O)c1OCOC(C)=O
6. COc1ccnc(C(=O)N[C@H]2COC[C@H](Cc3ccccc3)[C@@H](CCc3ccccc3)[C@H](C)OC2=O)c1OCOC(C)=O
7. CCC[C@H]1COC[C@H](NC(=O)c2nccc(OC)c2OC(C)=O)C(=O)O[C@@H](C)[C@@H]1Cc1ccc(F)cc1

1: > 70%; 2: > 70%; 3: > 70%; 4: < 70%; 5: > 70%; 6: > 70%; 7: > 70%
